target.under.test: CIB1 and αIIb interaction (CIB1-GST : F-αIIb peptide) (Homo sapiens, UniProt Q99828)
Construct: made in house; host or cells: BL-21 plus RIL cells (E. coli)
Sequence (Q99828 whole entry): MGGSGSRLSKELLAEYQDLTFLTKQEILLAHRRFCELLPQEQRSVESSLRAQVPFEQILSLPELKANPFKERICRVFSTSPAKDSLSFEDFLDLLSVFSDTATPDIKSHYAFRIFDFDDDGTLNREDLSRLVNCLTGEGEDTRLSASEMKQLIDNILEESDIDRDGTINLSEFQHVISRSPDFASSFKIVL
protocol.description: FP assay, 1536-well qHTS format (primary and confirmatory screen)
Format: binding
measurement.setup: confirmatory screen; read-out: CONFIRMATORY SCREEN IC50
attribute.measured: IC50 (µM)
One number for each entry, in µM.

Past entries and their recorded results:
1) O=C(O)C(F)(F)F.O=S(=O)(Nc1nc2n(n1)C(c1ccccc1)C=C(c1ccc(Cl)cc1)N2)c1ccccc1 (stereo not drawn) : 39.8
2) CCc1oc2ccccc2c1C(=O)c1cc(Br)c(O)c(Br)c1 : 22.4

Hi! Can you tell me IC50 for each of these compounds?
1. S=C(SSC(=S)N1CCCCC1)N1CCCCC1 [NCGC00181776-02, dipentamethylenethiuram disulfide]
2. O=C(O)C(F)(F)F.O=c1c2ccccc2nc2sc(Nc3cccc(N4CCN5CCCCC5C4)c3)nn12 (stereo not drawn)
3. COc1cccc(-n2c(SCc3cc(=O)oc4cc(O)c(O)cc34)nc3ccccc3c2=O)c1.O=C(O)C(F)(F)F
4. O=[N+]([O-])c1cnc(Sc2nnc(O)n2-c2ccc3c(c2)OCCO3)s1
5. O=C(Nc1nc(-c2ccccc2)cs1)c1ccncc1NS(=O)(=O)c1ccc(Cl)cc1.O=C(O)C(F)(F)F
6. CC(C)(C)c1ccc(SC2=NS(=O)(=O)c3ccccc32)cc1

Found:
1: 25.1; 2: 7.9; 3: 14.1; 4: 11.2; 5: 25.1; 6: 31.6

Hi! Can you tell me IC50 for each of these compounds?
1. O=C(O)C(F)(F)F.O=c1c2ccccc2nc2sc(NS(=O)(=O)c3ccc4c(c3)CCC4)nn12
2. O=c1sc2ccccc2c(O)c1C1CC(c2ccc(-c3ccc(Br)cc3)cc2)Cc2ccccc21 (stereo not drawn)

Found:
1. 6.3
2. 7.1

Hi! Can you tell me IC50 for each of these compounds?
1. COc1ccc2c(c1)C=C1Cn3c-2c(C2CCCCC2)c2ccc(cc23)C(=O)NS(=O)(=O)N(C)CCOCCN(C)C1=O
2. CSC(Cc1ccc(Cl)cc1)C(=O)Nc1ccc(Cl)cc1C(=O)O.O=C(O)C(F)(F)F (stereo not drawn)
3. Cc1cc(=O)oc2cc(SC3=NS(=O)(=O)c4ccccc43)ccc12
4. Cc1ccc(S(=O)(=O)Nc2cnccc2C(=O)Nc2nc(-c3ccccc3)cs2)cc1.O=C(O)C(F)(F)F

Found:
1. 39.8
2. 44.7
3. 20
4. 14.1

Lookup: Give IC50 for the following compound: O=C(Cc1ccc(Cl)c(Cl)c1)Nc1ccc(S(=O)(=O)Nc2ccon2)cc1.O=C(O)C(F)(F)F
Found: 22.4

* * *

target.under.test: CIB1 and αIIb interaction (CIB1-GST : F-αIIb peptide) (Homo sapiens)
Construct: made in house; host or cells: BL-21 plus RIL cells (E. coli)
protocol.description: FP assay, 1536-well qHTS format (primary and confirmatory screen)
Format: binding
measurement.setup: qHTS primary screen of LOPAC/NPACT libraries; negative sign = inhibitory curve
For each of the molecules below, state its Curve Class.

Past entries and their recorded results:
1) Cc1cccc(C)c1-n1c(=O)c2cnc(Nc3ccc(N4CCN(C)CC4)cc3)nc2n2c3ccccc3nc12 [NCGC00378811-02] : -2.4
2) C=C1C(=O)O[C@@H]2[C@H]3O[C@]3(C)CC/C=C(/C)CC[C@@H]12 [NCGC00094250-05] : -1.2

Hi! Can you tell me Curve Class for each of these molecules?
1. CC1(CO)CCCC2(C)C1C(OC(=O)c1ccccc1)C=C1C(=O)OCC12O (stereo not shown) [NCGC00380390-01]
2. CCn1cc(C(=O)O)c(=O)c2ccc(C)nc21 [NCGC00162271-02]

Found:
-2.4
-1.4

Cited source for all entries: paper PMC11249646
